System: DQ3.1
Conditions: read-out: PADRE Class II Binding Affinities; Table VIII A
Non-standard residues stand in square brackets, D forms with d. Residues, ends and D or L forms follow the SMILES beside them. Cha = N[C@@H](CC1CCCCC1)C(=O)O
Task for the reader: assign each of the following compounds its reported pIC50.
Answers are plain numbers, as −log10 of the molar value.

Consider the reported pIC50 for these compounds:
CC(C)[C@H](NC(=O)[C@@H](NC(=O)[C@H](C)NC(=O)[C@H](C)NC(=O)[C@H](C)NC(=O)[C@H](C)NC(=O)[C@H](CC1CCCCC1)NC(=O)[C@H](C)NC(=O)[C@@H](C)N)[C@@H](C)O)C(=O)N[C@@H](CCCCN)C(=O)N[C@@H](C)C(=O)N[C@@H](C)C(=O)N[C@H](C)C(N)=O [Peptide 906.32] : 7.59
CC(C)C[C@H](NC(=O)[C@@H](NC(=O)[C@H](C)NC(=O)[C@H](C)NC(=O)[C@H](C)NC(=O)[C@H](C)NC(=O)[C@H](CC1CCCCC1)NC(=O)[C@H](C)NC(=O)[C@@H](C)N)[C@@H](C)O)C(=O)N[C@@H](CCCCN)C(=O)N[C@@H](C)C(=O)N[C@@H](CCC(=O)O)C(=O)N[C@H](C)C(N)=O [Peptide 906.47] (H-[dA]A[Cha]AAAATLKAE[dA]-NH2; N-terminus and C-terminus assumed) : 7.22

Would you mind giving pIC50 for every compound in the list below?
1. C[C@H](NC(=O)[C@H](C)NC(=O)[C@H](C)NC(=O)[C@H](CC1CCCCC1)NC(=O)[C@H](C)NC(=O)[C@@H](C)N)C(=O)N[C@@H](C)C(=O)N[C@H](C(=O)N[C@@H](CCC(N)=O)C(=O)N[C@@H](CCCCN)C(=O)N[C@@H](C)C(=O)N[C@@H](C)C(=O)N[C@H](C)C(N)=O)[C@@H](C)O [Peptide 906.31]
2. CC(C)C[C@H](NC(=O)[C@@H](NC(=O)[C@H](C)NC(=O)[C@H](C)NC(=O)[C@H](C)NC(=O)[C@H](C)NC(=O)[C@H](CC1CCCCC1)NC(=O)[C@H](C)NC(=O)[C@@H](C)N)[C@@H](C)O)C(=O)N[C@@H](CCCCN)C(=O)N[C@H](C(=O)N[C@@H](C)C(=O)N[C@H](C)C(N)=O)C(C)C [Peptide 906.43] (H-[dA]A[Cha]AAAATLKVA[dA]-NH2; N-terminus and C-terminus assumed)
3. CC(C)C[C@H](NC(=O)[C@@H](NC(=O)[C@H](C)NC(=O)[C@H](Cc1ccccc1)NC(=O)[C@H](C)NC(=O)[C@H](C)NC(=O)[C@H](CC1CCCCC1)NC(=O)[C@H](C)NC(=O)[C@@H](C)N)[C@@H](C)O)C(=O)N[C@@H](CCCCN)C(=O)N[C@@H](C)C(=O)N[C@@H](C)C(=O)N[C@H](C)C(N)=O [Peptide 906.22] (H-[dA]A[Cha]AAFATLKAA[dA]-NH2; N-terminus and C-terminus assumed)

Reply text:
7.28
7.61
5.73

---

Task for the reader: assign each of the following molecules its reported IC50.
Target: DR1 (Homo sapiens, UniProt P01903+P01911, A100R/D57E/F55L/F60I/F76Y/I96L/L162R/M171V/P40L/Q125E/R42F/V115G/Y59C)
Test: biochemical
Conditions: PADRE Class II Binding Affinities DR1, Table IX
Give bare numbers, in nM.

Recorded IC50, per entry:
CC(C)C[C@H](NC(=O)[C@@H](NC(=O)[C@H](CC(N)=O)NC(=O)[C@H](C)NC(=O)[C@H](CCCNC(=N)N)NC(=O)[C@@H](NC(=O)[C@H](CC1CCCCC1)NC(=O)[C@H](CCCNC(=N)N)NC(=O)[C@@H](C)N)C(C)C)[C@@H](C)O)C(=O)N[C@@H](CCCCN)C(=O)N[C@@H](C)C(=O)N[C@@H](C)C(=O)N[C@H](C)C(N)=O [Peptide 965.06] : 0.8
CC(C)C[C@H](NC(=O)[C@@H](NC(=O)[C@@H](NC(=O)[C@H](C)NC(=O)[C@H](Cc1c[nH]c2ccccc12)NC(=O)[C@@H](NC(=O)[C@H](CC1CCCCC1)NC(=O)[C@H](CCCCN)NC(=O)[C@@H](C)N)C(C)C)C(C)C)[C@@H](C)O)C(=O)N[C@@H](CCCCN)C(=O)N[C@@H](C)C(=O)N[C@@H](C)C(=O)N[C@H](C)C(N)=O [Peptide 965.042] : 0.2
CC(C)C[C@H](NC(=O)[C@@H](NC(=O)[C@H](Cc1ccc(O)cc1)NC(=O)[C@H](C)NC(=O)[C@H](Cc1c[nH]c2ccccc12)NC(=O)[C@@H](NC(=O)[C@H](CC1CCCCC1)NC(=O)[C@H](CCCCN)NC(=O)[C@@H](C)N)C(C)C)[C@@H](C)O)C(=O)N[C@@H](CCCCN)C(=O)N[C@@H](C)C(=O)N[C@@H](C)C(=O)N[C@H](C)C(N)=O [Peptide 965.041] : 0.5

Inquiry: Return reported IC50; argument: CC(C)C[C@H](NC(=O)[C@@H](NC(=O)[C@H](Cc1ccc(O)cc1)NC(=O)[C@H](C)NC(=O)[C@H](C)NC(=O)[C@@H](NC(=O)[C@H](CC1CCCCC1)NC(=O)[C@H](CCCCN)NC(=O)[C@@H](C)N)C(C)C)[C@@H](C)O)C(=O)N[C@@H](CCCCN)C(=O)N[C@@H](C)C(=O)N[C@@H](C)C(=O)N[C@H](C)C(N)=O [Peptide 965.091]
Reply text: 0.6
